target: CYP3A4 (Homo sapiens, UniProt P08684); test: Inhibition of human recombinant CYP3A4 at 10 uM incubated for 30 mins at 37 degC using 7-benzyloxy-4-(trifluoromethyl)coumarin substrate; type: ADME; settings: recombinant CYP3A4, probe 7-benzyloxy-4-(trifluoromethyl)coumarin
Sequence (P08684 whole entry): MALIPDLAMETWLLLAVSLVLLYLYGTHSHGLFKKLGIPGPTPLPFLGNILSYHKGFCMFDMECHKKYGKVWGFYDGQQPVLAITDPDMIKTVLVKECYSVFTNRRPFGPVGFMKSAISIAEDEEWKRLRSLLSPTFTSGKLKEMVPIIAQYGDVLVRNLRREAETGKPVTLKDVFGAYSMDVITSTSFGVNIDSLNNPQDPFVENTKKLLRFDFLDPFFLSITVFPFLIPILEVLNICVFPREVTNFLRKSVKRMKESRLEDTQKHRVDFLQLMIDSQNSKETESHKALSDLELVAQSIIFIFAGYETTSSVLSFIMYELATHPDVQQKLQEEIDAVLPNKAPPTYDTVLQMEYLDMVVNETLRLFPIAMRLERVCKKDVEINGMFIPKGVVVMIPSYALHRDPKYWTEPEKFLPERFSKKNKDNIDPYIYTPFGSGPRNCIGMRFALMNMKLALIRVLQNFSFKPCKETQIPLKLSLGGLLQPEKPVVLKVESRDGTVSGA
Values of inhibition at 0.5 h, 10 µM greater than or equal to 10% map to MET; values below map to NOT MET.

// known answers, use as guide
>>> classification("O=C1c2cc(Br)ccc2-n2c1nc1ccncc1c2=O")
"MET"
>>> classification("O=C1c2ccc(Cl)cc2-n2c1nc1ccccc1c2=O")
"NOT MET"
>>> classification("CCOC(=O)c1ccc2c(c1)C(=O)c1nc3ccccc3c(=O)n1-2")
"NOT MET"
>>> classification("O=C1c2ccccc2-n2c1nc1ccccc1c2=O")
"MET"
>>> classification("O=C1C2=Nc3ccccc3CN2c2ccc(Cl)cc21")
"NOT MET"

Shifting focus to the molecule that follows.
[in] In plain terms: is recorded inhibition at 0.5 h, 10 µM at least 10% for `O=C1c2cc(Cl)ccc2-n2c1nc1ncccc1c2=O` ?
[out] MET

====

experiment: Oral bioavailability in Sprague-Dawley rat at 20 mg/kg; assay type: ADME, organism-based; settings: in vivo
Listed compounds paired with reported bioavailability
# unit: % | format: bare number

Consider the reported bioavailability for these compounds:
>>> value_observed("O=C1C2=Nc3ccccc3CN2c2ccc(Cl)cc21")
8
>>> value_observed("O=C1c2ccccc2-n2c1nc1c(c2=O)CCCC1")
30.1

Now turn to the next compound.
[in] Recall and state the measured bioavailability for `O=C1c2cc(C(=O)N3CCCCC3)ccc2-n2c1nc1ccccc1c2=O` .
[out] 3.16

====

Recorded IC50 for the following compounds
system: Vero; assay: Cytotoxicity against african green monkey Vero cells; assay type: cell-based, Chlorocebus sabaeus; conditions: Chlorocebus sabaeus, Vero; read-out: IC50

Some compounds with known IC50 results, for comparison:
>>> value_observed("O=C1c2ccc(N3CCOCC3)cc2-n2c1nc1ccncc1c2=O")
"> 20 µg/mL"
>>> value_observed("O=C1c2ccc(N3CCCCC3)cc2-n2c1nc1ccccc1c2=O")
"18 µg/mL"

[in] Give reported IC50 value for `O=C1c2cc(Cl)ccc2-n2c1nc1ccncc1c2=O`
[out] 8.5 µg/mL

====

test system: Mycobacterium tuberculosis; test: Antitubercular activity against Mycobacterium tuberculosis H37Rv incubated at 37 degC for 14 days in presence of 40% human serum by microplate alamar blue assay; format: functional; details: 336 h
# 1 (yes) = MIC below 0.3 µg/mL (exclusive); 0 (no) = MIC at/above 0.3 µg/mL

>>> classification("O=C1c2cc(Cl)ccc2-n2c1nc1ccc(F)cc1c2=O")
"0 (no)"
>>> classification("O=C1c2cc(Cl)ccc2-n2c1nc1ncccc1c2=O")
"1 (yes)"
>>> classification("O=C1c2cc(Cl)ccc2-n2c1nc1cc(F)ccc1c2=O")
"0 (no)"
>>> classification("O=C1c2cc(OC(F)(F)F)ccc2-n2c1nc1cnccc1c2=O")
"1 (yes)"
>>> classification("O=C1C2=Nc3ccccc3CN2c2ccccc21")
"0 (no)"

[in] Regarding `CC(C)(C)OC(=O)N1CCN(c2ccc3c(c2)-n2c(nc4ccncc4c2=O)C3=O)CC1` , kindly confirm whether its MIC is beneath 0.3 µg/mL.
[out] 0 (no)

[in] Please state whether MIC is below 0.3 µg/mL for `O=C1c2ccc(N3CCCCC3)cc2-n2c1nc1ccncc1c2=O`
[out] 0 (no)

[in] Dear colleague, could you confirm whether MIC of O=C1c2ccccc2-n2c1nc1ccccc1c2=O [TRYPTANTHRIN] falls below 0.3 µg/mL? Thanks.
[out] 0 (no)

[in] Identify whether the compound `O=C1c2cc(Cl)ccc2-n2c1nc1ccncc1c2=O` records MIC below 0.3 µg/mL.
[out] 1 (yes)

====

assay: AUC (0 to infinity) in Sprague-Dawley rat at 5 mg/kg, iv; type: ADME, organism-based; parameters: time infinity, dose 5 mg/kg, route intravenous; conditions: plasma
reported-endpoint: AUC(0-inf) (ng·h/mL)
Lab book: enter the figure in ng·h/mL, no units written.

Answered examples (2):
>>> value_observed("O=C1C2=Nc3ccccc3CN2c2ccc(Cl)cc21")
930
>>> value_observed("O=C1c2cc(C(=O)N3CCCCC3)ccc2-n2c1nc1ccccc1c2=O")
1070

API: the following record is the query input.
[in] Look up and report measured AUC(0-inf) for this entry: `O=C1c2ccccc2-n2c1nc1c(c2=O)CCCC1`
[out] 16500

====

assay: Half life in female rat at 56 mg/kg, po; format: ADME, organism-based; set-up: dose 56 mg/kg, route oral; conditions: in vivo
reported-endpoint: half-life (h)
Express the result in h but write the number alone.

[in] Given the compound `O=C1c2ccccc2-n2c1nc1ccccc1c2=O` , write its reported half-life.
[out] 4.35

====

assay: Aqueous solubility in PBS buffer at pH 7.4 by HPLC method; type: physicochemical; conditions: PBS buffer, read-out: solubility
Entries and their solubility values follow.
Provide the reading as a plain figure in µM.

Consider the worked cases shown below.
>>> value_observed("O=C1c2cc(C(=O)N3CCCCC3)ccc2-n2c1nc1ccccc1c2=O")
16.3
>>> value_observed("O=C1c2cc(Br)ccc2-n2c1nc1ccccc1c2=O")
2.6
>>> value_observed("O=C1c2cc(Cl)ccc2-n2c1nc1ccccc1c2=O")
3.3
>>> value_observed("O=C1c2cc(Cl)ccc2-n2c1nc1ncccc1c2=O")
8
>>> value_observed("O=C1c2cc(OC(F)(F)F)ccc2-n2c1nc1ccccc1c2=O")
1

[in] Read the entry `CCOC(=O)c1ccc2c(c1)C(=O)c1nc3ccccc3c(=O)n1-2` and write its reported solubility.
[out] 3.8

[in] Dear colleague, please send me the reported solubility for `O=C1c2cc(Br)ccc2-n2c1nc1ccncc1c2=O` when you can.
[out] 35.4

[in] Give the reported solubility for this compound. `O=C1c2ccccc2-n2c1nc1c(c2=O)CCCC1`
[out] 54.9

[in] Return reported solubility. Input compound: `O=C1c2cc(Cl)ccc2-n2c1nc1cc(F)ccc1c2=O`
[out] 1.1

[in] Identify measured solubility corresponding to `O=C1c2cc(F)ccc2-n2c1nc1ccccc1c2=O`
[out] 4.9

[in] Read the entry `O=C1c2cc([N+](=O)[O-])ccc2-n2c1nc1ccccc1c2=O` and write its reported solubility.
[out] 64.3

====

Each record here notes measured IC50.
test system: Vero; assay: Cytotoxicity against african green monkey Vero cells; format: cell-based, Chlorocebus sabaeus; conditions: Chlorocebus sabaeus, Vero; read-out: IC50
API: value field is a number in µg/mL; no unit string.

Worked cases, IC50 given:
>>> value_observed("O=C1c2ccccc2-n2c1nc1ncccc1c2=O")
24
>>> value_observed("O=C1c2cc(Br)ccc2-n2c1nc1ccccc1c2=O")
35

# input for lookup
[in] Tell me its IC50 given `O=C1c2cc([N+](=O)[O-])ccc2-n2c1nc1ccccc1c2=O` as the entry.
[out] 28

====

Reported Papp B→A at 1 h values follow for various molecules
test: Permeability across basolateral to apical side in human Caco2 cells incubated for 1 hr at 37 degC by HPLC-MS/MS method; assay type: ADME, cell-based; settings: Caco-2
State the answer as a number, implicitly in ×10⁻⁶ cm/s.

Before answering, review these 5 worked examples.
>>> value_observed("O=C1C2=Nc3ccccc3CN2c2ccc(Cl)cc21")
20.8
>>> value_observed("O=C1c2cc(Br)ccc2-n2c1nc1ccccc1c2=O")
7.6
>>> value_observed("O=C1c2cc(Cl)ccc2-n2c1nc1ncccc1c2=O")
44
>>> value_observed("O=C1c2ccccc2-n2c1nc1c(c2=O)CCCC1")
52.4
>>> value_observed("O=C1c2cc(F)ccc2-n2c1nc1ccccc1c2=O")
29.9

[in] For the molecule `O=C1c2cc(OC(F)(F)F)ccc2-n2c1nc1ccccc1c2=O` , give its measured Papp B→A at 1 h value.
[out] 5.8

[in] Provide measured Papp B→A at 1 h value, entry: `O=C1c2cc(Cl)ccc2-n2c1nc1cc(F)ccc1c2=O`
[out] 12.7

[in] Supply measured Papp B→A at 1 h of `O=C1c2ccccc2-n2c1nc1ccccc1c2=O` in your reply.
[out] 22.5

[in] Consider the molecule `O=C1c2cc(Cl)ccc2-n2c1nc1ccc(F)cc1c2=O` and give its recorded Papp B→A at 1 h.
[out] 2.1

====

experiment: Metabolic stability in human liver microsomes assessed as parent compound remaining at 1 uM incubated for 1 hr by HPLC-MS/MS method; type: ADME, Microsome; settings: read-out: Stability
reported-endpoint: remaining at 1 h, 1 µM (%)
Note: unit % is implicit; provide only the numeric part.

A selection of reference data follows.
>>> value_observed("O=C1c2cc(OC(F)(F)F)ccc2-n2c1nc1ccccc1c2=O")
59
>>> value_observed("O=C1c2cc(Cl)ccc2-n2c1nc1cc(F)ccc1c2=O")
91
>>> value_observed("O=C1c2ccccc2-n2c1nc1c(c2=O)CCCC1")
18

[in] Identify remaining at 1 h, 1 µM associated with the compound `O=C1c2ccc(Cl)cc2-n2c1nc1ccccc1c2=O`
[out] 27

[in] Answer with reported remaining at 1 h, 1 µM of `CCOC(=O)c1ccc2c(c1)C(=O)c1nc3ccccc3c(=O)n1-2`
[out] 0

[in] Could you please provide reported remaining at 1 h, 1 µM for `O=C1c2cc(Br)ccc2-n2c1nc1ccccc1c2=O` ? Thanks!
[out] 59
